Assay: ATG_PPRE_CIS: Attagene CIS-FACTORIAL HepG2 Assay for human Peroxisome Proliferator-activated Response Element (PPRE) (AID 2282958)
Conditions: HepG2 PPRE cis-element reporter, Attagene transcription factor profiling; actives raise or lower the signal
Activity calls are given as the source filed them. The calls were made as follows: active = hit-call score of the fitted dose curve at least 0.9, where 1 is the maximum; inactive = score below 0.9.
Assign a class; possible classes are true for active, false for inactive

Some solved entries appear below for comparison.
molecule=O=C(O)C(F)(F)OC(F)(F)C(F)(F)OC(F)(F)C(=O)O group=false
molecule=N#Cc1ccc(O)cc1 group=false
molecule=Nc1ccc(Sc2ccc(N)cc2)cc1 group=true
molecule=c1ccc2c(c1)sc1ccccc12 group=false
molecule=CCCCc1ccc(O)cc1 group=false

Task: What outcome does the record of this test show for O=c1[nH]c2ccccc2c(=O)o1 ?
Output: false

Task: What outcome does the record of this test show for CCOP(=S)(OCC)SCSc1ccc(Cl)cc1 ?
Output: false

Task: What outcome does the record of this test show for Nc1cc2c3c(c1)C(c1ccccc1)=N[C@@H](NC(=O)c1cccnc1)C(=O)N3CC2 ?
Output: false

Task: What outcome does the record of this test show for CCN(CC)C1CCCCC1 ?
Output: false

Task: What outcome does the record of this test show for NC(=O)C(F)(F)C(F)(F)F ?
Output: false

Task: What outcome does the record of this test show for CCOP(=S)(OCC)SCSCC ?
Output: true

Task: What outcome does the record of this test show for CC(Cl)CN(C)C (configuration not stated) ?
Output: false
